Reference source for all entries: patent US7091193B2

# METHOD_SUMMARY: Single-dose i.v. and oral (gavage) pharmacokinetics and tolerability in beagle dogs
# Type: in vivo
# STUDY_CONDITIONS: dog, plasma, oral doses 2 and 4 mg/kg
MEASURED_ATTRIBUTE: bioavailability

Query string: Query bioavailability for C/C1=C/C[C@@H](/C(C)=C/c2csc(C)n2)OC(=O)C[C@H](O)C(C)(C)C(=O)[C@H](C)[C@@H](O)[C@@H](C)CCC1 [epothilone D]
Result string: > 50%

====

# METHOD_SUMMARY: Single-dose i.v. and oral (gavage) pharmacokinetics and tolerability in beagle dogs
# Assay type: in vivo
# STUDY_CONDITIONS: dog, plasma, oral dosing (average), read-out: average half-life (converted)
MEASURED_ATTRIBUTE: half-life
Answer with the value and then the unit.

Query string: Quick one: give measured half-life for `C/C1=C/C[C@@H](/C(C)=C/c2csc(C)n2)OC(=O)C[C@H](O)C(C)(C)C(=O)[C@H](C)[C@@H](O)[C@@H](C)CCC1`
Result string: 9.13 h
